target: Poly [ADP-ribose] polymerase 1 (Homo sapiens, UniProt P09874); test: Inhibition of human recombinant N-terminal GST-tagged PARP1 (2 to 1014 end residues) incubated for 1 hr by ELISA assay
Sequence (P09874 whole entry): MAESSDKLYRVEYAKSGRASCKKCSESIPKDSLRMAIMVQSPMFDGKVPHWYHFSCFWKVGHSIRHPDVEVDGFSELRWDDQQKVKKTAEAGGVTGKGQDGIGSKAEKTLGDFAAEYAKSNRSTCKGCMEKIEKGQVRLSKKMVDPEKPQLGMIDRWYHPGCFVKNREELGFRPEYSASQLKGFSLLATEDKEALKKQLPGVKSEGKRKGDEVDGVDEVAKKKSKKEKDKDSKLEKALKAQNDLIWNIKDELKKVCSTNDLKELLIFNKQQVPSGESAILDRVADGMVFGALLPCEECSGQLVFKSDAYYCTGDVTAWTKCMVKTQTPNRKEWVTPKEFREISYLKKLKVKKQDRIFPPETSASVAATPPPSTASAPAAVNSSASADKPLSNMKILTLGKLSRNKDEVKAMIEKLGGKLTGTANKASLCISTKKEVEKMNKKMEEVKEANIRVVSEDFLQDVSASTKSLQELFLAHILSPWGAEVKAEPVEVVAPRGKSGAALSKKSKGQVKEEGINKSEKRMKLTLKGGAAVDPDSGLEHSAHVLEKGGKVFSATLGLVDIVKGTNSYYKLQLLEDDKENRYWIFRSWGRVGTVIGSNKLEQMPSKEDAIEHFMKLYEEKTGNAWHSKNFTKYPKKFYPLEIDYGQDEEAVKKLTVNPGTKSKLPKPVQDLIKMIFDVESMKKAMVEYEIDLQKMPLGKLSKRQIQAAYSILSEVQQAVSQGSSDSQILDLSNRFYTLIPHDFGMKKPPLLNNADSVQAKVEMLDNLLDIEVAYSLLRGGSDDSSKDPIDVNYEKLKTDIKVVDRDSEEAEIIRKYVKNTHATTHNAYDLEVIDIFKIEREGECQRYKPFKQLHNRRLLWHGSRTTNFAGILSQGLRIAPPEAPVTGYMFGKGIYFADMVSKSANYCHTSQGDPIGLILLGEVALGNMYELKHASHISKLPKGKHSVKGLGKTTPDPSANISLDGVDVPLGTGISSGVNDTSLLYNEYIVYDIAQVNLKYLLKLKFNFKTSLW
pIC50: −log10 of the molar value.
parameterMeasured: pIC50

Example cases with answers are listed next.
The compound C[C@@H](CN1CCC(C(=O)N2CCN(c3ncc(C(F)(F)F)cn3)CC2)CC1)Nc1cn[nH]c(=O)c1C(F)(F)F showed pIC50 equal to < 5.30

The compound C[C@@H](CN1CCC(C(=O)N2CCN(c3ncc(C(F)(F)F)cn3)CC2)C1)Nc1cn[nH]c(=O)c1C(F)(F)F (stereo partly drawn) showed pIC50 equal to 5.95

***
The compound C[C@@H](CN1CC(C(=O)N2CCN(c3ncc(C(F)(F)F)cn3)CC2)C1)Nc1cn[nH]c(=O)c1C(F)(F)F showed pIC50 equal to < 5.30
